Biological target: T1, his-tagged human TIGIT (Acro Biosystems #TIT-H52H3) (human, UniProt Q495A1 22-141)
T1 construct: Bought protein; also called His-tagged-TIGIT (human); not shown: his tag
T1 sequence (looked up): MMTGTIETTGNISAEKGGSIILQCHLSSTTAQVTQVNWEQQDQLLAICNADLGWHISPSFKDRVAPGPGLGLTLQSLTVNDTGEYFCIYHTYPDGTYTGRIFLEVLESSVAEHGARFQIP
Assay: SPR (Carterra LSA), scFv-Fc captured, His-TIGIT analyte
Observed property: Kd (nM)

Binder	Unit string	Measured
43586p2.C01 (scFv, V domains shown) VH: EVQLLESGGGLVQPGGSLRLSCAASGFTFSDYYMNWVRQAPGKGLEYVASINWNGGTTYYADSVKGRFTISRDNSKNTLYLQMNSLRAEDTAVYYCAKDQNWNFYYGMDVWGQGTTVTVSS VL: QSVLTQPPSASGTPGQRVTISCSGGSSNIGNNFVSWYQQLPGTAPKLLIYNEIKRPSGVPDRFSASKSGTSASLAISGLQSEDEADYYCASWDGSLRGWVFGGGTKLTVL	nM	0.151
43586p1.1.C2 (scFv, V domains shown) VH: EVQLLESGGGLVQPGGSLRLSCAASGFTFSDYYMNWVRQAPGKGLEWVSSINWNGGTTYYADSVKGRFTISRDNSRNTLYLQMNSLRAEDTAVYYCAKDQNWNFYYGMDVWGQGTTVTVSS VL: QSVLTQPPSASGTPGQRVTISCSGGSSNIGTNYVSWYQQLPGTAPKLLLYKEDQRPSGVPDRFSGSKSGTSASLAISGLQSEDEADYYCATWDGSLRSWVFGGGTKLTVL	nM	0.383
43586p2.C09 (scFv, V domains shown) VH: EVQLLESGGGLVQPGGSLRLSCTASGFTFTSYAMSWVSQAPGKGLEWVAGISYDGSIKYYADSVKGRLTISRDNSKNTLYLQMNSLRAEDTAIYYCAKHLTGGTTDYYYYAMDVWGQGTTVTVSS VL: QSVLTQPPSASGTPGQRVTISCSGSTSNIGTNRYVHWYQQFPGTAPKLLIYGTDRRPSGVSDRFSGSKSGTSASLAISGLQSEDEADYYCAAWDDSLSAWVFGGGTKLTVL	nM	0.354
43645p1.F7 (scFv, V domains shown) VH: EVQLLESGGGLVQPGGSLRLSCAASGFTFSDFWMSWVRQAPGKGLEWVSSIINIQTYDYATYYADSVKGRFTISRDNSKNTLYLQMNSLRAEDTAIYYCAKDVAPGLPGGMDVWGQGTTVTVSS VL: QSVLTQPPSASGTPGQRVTISCSGSNSNIRNNFVSWYQHLPGTAPKLLIYGNSQRPSGVPDRFSGSKSGTSASLAISGLQSEDEADYYCTSWDFSVNGWVFGGGTKLTVL	nM	0.0741
43586p2.B02 (scFv, V domains shown) VH: EVQLLESGGGLVQPGGSLRLSCAASGFTFTSYAMSWVSQAPGKGLEWVAGISYDGSSKYYADSVKGRLTISRDNSKNTLYLQMNSLRAEDTAIYYCAKHLTGGTTDYYYYAMDVWGQGTTVTVSS VL: QSVLTQPPSASGTPGQRVTISCSGSRSNIGTNRYVHWYQQLPGTAPKLLIYGNHQRPSGVPDRFSGSKSGTSASLAISGLQSEDEADYYCAAWDDSLSAWVFGGGTKLTVL	nM	2.19
